Hi there, I'd appreciate the recorded melting point for every entry that follows.
Structures can show the parent of a compound that is named as a salt.

Illustrative cases are given below, each with its answer.
> print(dat)
                                   molecule           reported
1  CC(C)COc1cncc(N2CCCN(C)CC2)c1 (as salt: fumaric acid salt) [Compound 8E]  145.7 to 146.9 °C
2  Clc1ccc(N2CCCCNCC2)nn1 (as salt: fumaric acid salt) [Compound 8B]      177 to 179 °C
3  Nc1cccc(N2CCCNCC2)c1 (as salt: fumaric acid salt)  165.4 to 167.7 °C
4  CCCCCCCOc1cncc(N2CCCNCC2)c1 (as salt: fumaric acid salt)  132.8 to 136.6 °C
5  Cc1ccc(N2CCCN(C)CC2)nn1 (as salt: fumaric acid salt)      152 to 153 °C
6  CN1CCCN(c2ccc(-c3ccccc3)nn2)CC1 (as salt: fumaric acid salt)      185 to 186 °C

# return melting point for each item in the list
1. c1cncc(N2CCCNCC2)c1 (as salt: fumaric acid salt) [Compound 1F, 1-(3-Pyridyl)-homopiperazine]
2. CCCCOc1cncc(N2CCN(C)CC2)c1 (as salt: fumaric acid salt)

A.
1. 172.1 to 172.9 °C
2. 136.9 to 139.2 °C

# return melting point for each item in the list
1. c1ccn(-c2cncc(N3CCCNCC3)c2)c1 (as salt: fumaric acid salt)
2. CN1CCN(c2cncc(-c3ccccc3)c2)CC1 (as salt: fumaric acid salt) [Compound 6A]
3. C=COc1cncc(N2CCCNCCC2)c1 (as salt: fumaric acid salt)

A.
174 to 175 °C
179 to 180 °C
142 to 144 °C

# return melting point for each item in the list
1. c1cc(N2CCCC2)ncc1N1CCCNCC1 (as salt: fumaric acid salt)
2. CN1CCN(c2cccnc2)CC1 (as salt: fumaric acid salt) [Compound 1A, 4-Methyl-1-(3-pyridyl)-piperazine]
3. CCCCOc1cncc(N2CCCNCC2)c1 (as salt: fumaric acid salt)
4. c1ncc(N2CCCNCC2)cc1OCC1CCCCC1 (as salt: fumaric acid salt)
5. Clc1cncc(N2CCNCC2)c1 (as salt: fumaric acid salt) [Compound 4B, 1-(5-Chloro-3-pyridyl)-piperazine]
6. Clc1ccc(N2CCCNCC2)cn1

A.
1. 148.6 to 150.5 °C
2. 144.5 to 145.9 °C
3. 150 to 151 °C
4. 163.3 to 164.5 °C
5. 195 to 196 °C
6. 165 to 167 °C

# return melting point for each item in the list
1. Clc1nc2ccccc2nc1N1CCCNCC1 (as salt: fumaric acid salt)
2. CCOc1cncc(N2CCN(CC)CC2)c1 (as salt: fumaric acid salt) [Compound 9D]

A.
["136.2 to 139.9 °C", "144.8 to 145.9 °C"]

---

Experimental system: neuronal nicotinic receptors (α4β2 subtype high affinity site) (Rattus norvegicus, UniProt P09483+P12390)
Construct: The forebrain (÷cerebellum) from a male Wistar rat (150-250 g) is homogenized; from tissue; host or cells: rat forebrain (without cerebellum) membrane homogenate
Assay details: In vitro inhibition of 3H-epibatidin binding
Measurement setup: rat forebrain homogenate, 0.3 nM 3H-epibatidin, 60 min at room temperature; read-out: 3H-epibatidin IC50
Value type: pIC50
Give bare numbers, as −log10 of the molar value.

Illustrative cases are given below, each with its answer.
> print(dat)
                                   compound  value.type  reported
1     COc1cncc(N2CCCN(C)C2)c1 [Compound 2M]       pIC50      5.57
2  COc1cncc(N2CCCN(C)CCC2)c1 [Compound 11A]       pIC50      5.92
3  CC(C)COc1cncc(N2CCCN(C)CC2)c1 [Compound 8E]       pIC50      6.35
4   CCOc1cncc(N2CCCN(C)CC2)c1 [Compound 4E]       pIC50      6.52
5  FC(F)(F)c1cncc(N2CCCNCC2)c1 [Compound 6K]       pIC50      7.40

# return pIC50 for each item in the list
1. CCCCCOc1cncc(N2CCCN(C)CC2)c1 [Compound 15E]
2. CN1CCCN(c2cncc(OCC3CC3)c2)CC1 [Compound 9E]

A.
6.68
5.32

---

Experimental system: nAChR formed by the α7 subunit isoform (Rattus norvegicus)
Sequence (Q05941 23-502): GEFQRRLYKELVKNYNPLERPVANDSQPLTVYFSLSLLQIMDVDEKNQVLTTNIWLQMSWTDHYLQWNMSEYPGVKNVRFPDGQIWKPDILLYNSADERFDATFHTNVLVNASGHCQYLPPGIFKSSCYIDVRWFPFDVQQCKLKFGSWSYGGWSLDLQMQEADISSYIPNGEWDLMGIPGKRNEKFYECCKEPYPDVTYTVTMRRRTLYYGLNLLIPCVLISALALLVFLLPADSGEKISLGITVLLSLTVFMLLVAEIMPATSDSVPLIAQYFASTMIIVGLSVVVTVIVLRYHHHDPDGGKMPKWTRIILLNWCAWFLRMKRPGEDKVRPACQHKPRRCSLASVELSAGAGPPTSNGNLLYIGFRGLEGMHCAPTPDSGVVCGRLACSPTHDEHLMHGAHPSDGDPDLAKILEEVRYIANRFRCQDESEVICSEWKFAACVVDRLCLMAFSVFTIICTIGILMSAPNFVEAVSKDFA
Assay details: biochemical
Assay type: binding
Hi there, I'd appreciate the recorded IC50 for every entry that follows.
Answers are plain numbers, in µM.

> print(dat)
                                   compound  reported
1                CN1CCCN(c2cnc3ccccc3c2)CC1       1.8
2                 c1ccc2ncc(N3CCCNCC3)cc2c1       5.9
3                  COCCOc1cncc(N2CCCNCC2)c1        19
4  CN1CCCN(c2cncc(SCc3ccccc3)c2)CC1 [Compound 18E]        15

# return IC50 for each item in the list
1. c1ccc(-c2cncc(N3CCCNCC3)c2)cc1
2. c1cnnc(N2CCCNCC2)c1
3. CN1CCCN(c2cncc(-c3ccccc3)c2)CC1
4. CN1CCCN(c2cccnc2)CC1
5. COc1cncc(N2CCCNCCC2)c1
6. c1ccc2nc(N3CCCNCC3)cnc2c1

A.
1: 37; 2: 1.6; 3: 16; 4: 4.6; 5: 2.5; 6: 27

# return IC50 for each item in the list
1. CN1CCN(c2cncc(Cl)c2)CC1
2. Clc1ccc(N2CCCNCC2)nn1
3. COc1cncc(N2CCCNCC2)c1

A.
[73.4, 1.4, 3]

---

Where a name gives a salt, the structure may show the parent alone.
Hi there, I'd appreciate the recorded melting point for every entry that follows.

> print(dat)
                                   compound           reported
1  Oc1cccc(N2CCCNCC2)c1 (as salt: fumaric acid salt)      165 °C (dec.)
2                  c1ccc2ncc(N3CCNCC3)cc2c1    87.7 to 88.5 °C
3  CCCCOc1cncc(N2CCCN(C)CC2)c1 (as salt: fumaric acid salt)      127 to 129 °C
4  Brc1cncc(N2CCCNCC2)c1 (as salt: fumaric acid salt)  180.7 to 185.4 °C

For CCCCCCOc1cncc(N2CCCNCC2)c1 (as salt: fumaric acid salt) the compound record lists melting point as 149.5 to 151.8 °C

---

Hi there, I'd appreciate the recorded log10 IC50 for every entry that follows.
Experimental system: nAChRs comprised of α4 and β2 subunits (Rattus norvegicus, UniProt P09483+P12390)
Sequence (P09483 31-630): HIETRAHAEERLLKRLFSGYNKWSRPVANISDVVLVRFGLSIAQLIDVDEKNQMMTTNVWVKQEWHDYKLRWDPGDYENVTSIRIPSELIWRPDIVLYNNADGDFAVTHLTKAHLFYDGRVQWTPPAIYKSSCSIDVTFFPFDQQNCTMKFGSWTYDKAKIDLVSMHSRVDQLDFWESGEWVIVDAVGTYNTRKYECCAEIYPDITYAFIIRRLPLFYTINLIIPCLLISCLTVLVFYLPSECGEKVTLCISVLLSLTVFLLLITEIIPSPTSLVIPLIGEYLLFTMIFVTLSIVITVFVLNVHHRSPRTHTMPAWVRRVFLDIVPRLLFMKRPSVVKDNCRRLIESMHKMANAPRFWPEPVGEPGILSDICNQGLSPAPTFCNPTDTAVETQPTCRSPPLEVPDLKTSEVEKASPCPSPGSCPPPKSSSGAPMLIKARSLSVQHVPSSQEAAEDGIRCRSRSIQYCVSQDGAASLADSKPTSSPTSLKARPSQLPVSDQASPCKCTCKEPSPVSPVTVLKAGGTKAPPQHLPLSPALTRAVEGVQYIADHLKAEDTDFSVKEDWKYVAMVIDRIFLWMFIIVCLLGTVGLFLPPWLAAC
Sequence (P12390 25-500): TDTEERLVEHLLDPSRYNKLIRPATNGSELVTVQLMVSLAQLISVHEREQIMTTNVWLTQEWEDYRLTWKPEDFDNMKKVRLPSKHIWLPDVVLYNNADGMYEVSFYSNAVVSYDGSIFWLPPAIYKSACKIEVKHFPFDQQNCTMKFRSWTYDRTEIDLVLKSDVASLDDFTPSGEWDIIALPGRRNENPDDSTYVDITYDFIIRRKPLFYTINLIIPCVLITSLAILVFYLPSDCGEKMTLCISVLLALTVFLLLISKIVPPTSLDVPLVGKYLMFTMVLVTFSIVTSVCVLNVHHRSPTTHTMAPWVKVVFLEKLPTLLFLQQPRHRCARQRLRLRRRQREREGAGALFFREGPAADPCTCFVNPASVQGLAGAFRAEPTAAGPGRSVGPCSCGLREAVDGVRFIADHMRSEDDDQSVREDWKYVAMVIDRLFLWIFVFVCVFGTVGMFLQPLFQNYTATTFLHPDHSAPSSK
Assay details: In vitro inhibition of 3H-cytisine binding
Response schema: value (number) is log10 of IC50 in units of nM.

Illustrative cases are given below, each with its answer.
> print(dat)
                                    compound                       experimental.system  value.type  reported
 1  c1ccc2ncc(N3CCCNCC3)cc2c1 [Compound 2F, 1-(3-Quinolinyl)-homopiperazine]  nAChRs comprised of α4 and β2 subunits (Rattus norvegicus, UniProt P09483+P12390)  log10 IC50      0.78
 2    CCOc1cncc(N2CCN(C)CC2)c1 [Compound 7A]  nAChRs comprised of α4 and β2 subunits (Rattus norvegicus, UniProt P09483+P12390)  log10 IC50      0.78
 3  c1ncc(N2CCCNCC2)cc1OCC1CC1 [Compound 9H]  nAChRs comprised of α4 and β2 subunits (Rattus norvegicus, UniProt P09483+P12390)  log10 IC50      0.00
 4  CCCOc1cncc(N2CCCN(C)CC2)c1 [Compound 10E]  nAChRs comprised of α4 and β2 subunits (Rattus norvegicus, UniProt P09483+P12390)  log10 IC50      1.78
 5  CC(C)COc1cncc(N2CCCNCC2)c1 [Compound 6H]  nAChRs comprised of α4 and β2 subunits (Rattus norvegicus, UniProt P09483+P12390)  log10 IC50      0.30
 6  Clc1cncc(N2CCCNCC2)n1 [Compound 3K, 1-(6-Chloro-2-pyrazinyl)-homopiperazine]  nAChRs comprised of α4 and β2 subunits (Rattus norvegicus, UniProt P09483+P12390)  log10 IC50      1.30
 7  CC(C)CCOc1cncc(N2CCCN(C)CC2)c1 [Compound 12E]  nAChRs comprised of α4 and β2 subunits (Rattus norvegicus, UniProt P09483+P12390)  log10 IC50      1.74
 8  C/C=C/Oc1cncc(N2CCCN(C)CC2)c1 [Compound 17E]  nAChRs comprised of α4 and β2 subunits (Rattus norvegicus, UniProt P09483+P12390)  log10 IC50      1.30
 9    COc1cncc(N2CCCN(C)CC2)c1 [Compound 3E]  nAChRs comprised of α4 and β2 subunits (Rattus norvegicus, UniProt P09483+P12390)  log10 IC50      1.97
10  CCCCOc1cncc(N2CCCN(C)CC2)c1 [Compound 6E]  nAChRs comprised of α4 and β2 subunits (Rattus norvegicus, UniProt P09483+P12390)  log10 IC50      1.65

# return log10 IC50 for each item in the list
1. COCCOc1cncc(N2CCCN(C)CC2)c1 [Compound 7E]
2. COc1cncc(N2CCCNCCC2)c1 [Compound 6B]
3. c1cnnc(N2CCCNCC2)c1 [Compound 1L, 1-(3-Pyridazinyl)-homopiperazine]
4. CCCCCOc1cncc(N2CCCN(C)CC2)c1 [Compound 15E]
5. CN1CCN(c2cncc(-c3ccccc3)c2)CC1 [Compound 6A]
6. COc1cncc(N2CCCNC(C)CC2)c1 (stereo not shown) [Compound 11A]
7. COc1cncc(N2CCCNCC2)c1 [Compound 1H, 1-(5-Methoxy-3-pyridyl)-homopiperazine]

A.
1: 1.85; 2: 0.00; 3: 1.48; 4: 1.48; 5: 1.90; 6: 1.60; 7: 0.30

# return log10 IC50 for each item in the list
1. COc1cncc(N2CCCN(C)C2)c1 [Compound 2M]
2. COc1cncc(N2CCN(C)CC2)c1 [Compound 3A]

A.
1: 1.95; 2: 1.83
